Below, each of the compounds is paired with its reported CC50 at 456 h value.
# experiment: in vitro
# condition description: human, cem-c113 cells
observation type: CC50 at 456 h

INSERT INTO assay_data (compound, observation_type, result) VALUES
  ('Cc1cn([C@H]2C[C@H](N=[N+]=[N-])[C@@H](COP(=O)(O)OCCO[C@H]3O[C@H](CO)[C@@H](O)[C@H](O)[C@@H]3O)O2)c(=O)[nH]c1=O', 'CC50 at 456 h', '> 25 µM'),
  ('Cc1cn([C@H]2CC[C@@H](CO)O2)c(=O)[nH]c1=O [ddT, 2'', 3''-dideoxy thymidine, reference compound]', 'CC50 at 456 h', '> 25 µM'),
  ('Nc1ccn([C@H]2CC[C@@H](CO)O2)c(=O)n1 [ddC, dideoxycytidine, reference compound]', 'CC50 at 456 h', '< 0.2 µM');

----------
# experiment: in vitro
# condition description: human, cem-c113 cells
Below, each of the molecules is paired with its reported CC50 at 528 h value.
observation type: CC50 at 528 h

INSERT INTO results (molecule, result) VALUES
  ('Nc1ccn([C@H]2CC[C@@H](CO)O2)c(=O)n1 [ddC, dideoxycytidine, reference compound]', '< 0.2 µM'),
  ('Cc1cn([C@H]2C[C@H](N=[N+]=[N-])[C@@H](COP(=O)(O)OCCO[C@H]3O[C@H](CO)[C@@H](O)[C@H](O)[C@@H]3O)O2)c(=O)[nH]c1=O', '> 25 µM'),
  ('Cc1cn([C@H]2CC[C@@H](CO)O2)c(=O)[nH]c1=O [ddT, 2'', 3''-dideoxy thymidine, reference compound]', '> 25 µM');

The measurements presented in this section are drawn from patent US5358937A.
